Target: T1, hSEZ6-ECD-His (human, UniProt Q53EL9 20-925)
T1 construct: the whole entry is named; also called recombinant SEZ6-His; human recombinant SEZ6-His
Assay: bio-layer interferometry (ForteBio RED) or surface plasmon resonance (Biacore 2000) on human SEZ6-His; the table does not say which; column Hu Affinity (Kd, nM)
Kd reference
Field: numeric (nM). Do not append units.

SC17.42 (antibody, V domains shown, murine mAb) VH: DVKLVESGGGLVRPGGSLKLSCAASGFTFSRYTMSWVRQTPEKRLEWAATINSGGSNTYYPDSVKGRFTISRDNAKNTLFLQMSSLKSEDTAMYYCTNGNHWGQGTTLTVSS VL: ENVLTQSPAIMSASPGEKVTMTCSASSSVNYMYWYQQKSSTSPKLWIYDTSKLTSGVPGRFSGSGSGNSYSLTISNMEAEDVATYYCFQGSGYPLTFGSGTKLEIK
2.7
SC17.17 (antibody, V domains shown, murine mAb) VH: EVQLQQSGPEVMKPGASVKMSCKASGYTFTDYNMHWVKQNQGKSLEWIGEINPNIGGTGYNQKFKGKATLTVHKSSSTAYMELRSLTSEDSAVYYCARTYSYYSYEFAYWGQGTLVTVSA VL: QIVLTQSPAIMSASPGEKVTMTCSASSSVSYMHWYQQKSGTSPKRWIYDTSKLPSGVPARFSGSGSGTSYSLTISSMEAEDAATYYCQQWSSTPPTFGAGTKLELK
1.8
SC17.24 (antibody, V domains shown, murine mAb) VH: QVQLQQSDAELVKPGASVKISCKVSGYTFTDHTIHWMKQRPEQGLEWIGYIYPRDGSTKYNEEFKGKATLTADKSSSTAYMQLNSLTSEDSAVYFCARSYSNYFDYWGQGTTLTVSS VL: DIVMSQSPSSLAVSVGEKVTMSCKSSQSLLYSSNQKSYLAWYQQKPGQSPKLLIYWASTRESGVPDRFTGSGSGTDFTLTISSVQAEDLAVYYCKQSYNLRTFGGGTKLEIK
5.1

## Task Determine its reported Kd: SC17.28 (antibody, V domains shown, murine mAb) VH: QVHLPQSRPELVKPGASVKISCKASGYGFTRSYIHWVKQRPGQGLEWIGYISSGSGGTTYNQKFKGKASLTADNPSSTAYMHLSSLTSEDSAIYFCARGGVRYFDVWGAGTTVTVSS VL: DILLTQSPAILSVSPGEGVSFSCRASQSIGTSIHWYQQRTNGSPRLLIKYASESISGIPSRFSGSGSGTDFTLRINSLESEDIADYYCQQSNSWPLTFGAGTKLELK
## Result 22.1

## Task Determine its reported Kd: SC17.34 (antibody, V domains shown, murine mAb) VH: EVQLQQSGPELVKPGSSVKISCKASGYTFTDYNMDWVKQSHGKRLEWIGYIYPDNGGAGYNQKFKGKATLTVDKSSSTAYMELRSLTSEDSAVYYCSRSITTAWFAYWGQGTLVTVSA VL: DIKMTQSPSSMYASLGERVTITCKASQDINSYLSWFQQKPGKSPKTLIYRANRLVDGVPSRFSGSGSGQDYSLTISSLEYEDMGIYYCLQYDEFPPTFGGGTKLEIK
## Result 15.1

## Task Determine its reported Kd: SC17.36 (antibody, V domains shown, murine mAb) VH: EVQLQESGPSLVKPSQSQSLTCSVTGDSITSDYWNWIRKFPGKKVEYMGYINYSGSTYYNPSLKSRISITRDTSKNQYYLQLNSVTSEDTATYYCARTSYYNKFLPFAYWGQGTLVTVSA VL: QIVLTQSPALMSASPGEKVTMTCSASSSVSYMYWYQQKPRSSPKPWIYLTSNLASGVPARFSGSGSGTSYSLTISSMEAEDAATYYCQQWSSNPPTFGGGTKLEIK
## Result 6.3

All values here come from patent US20190022241A1.
